# reported inhibition; entries follow
measured.target: Microtubule-associated serine/threonine-protein kinase 4 (Homo sapiens) (UniProt O15021)
Sequence (O15021 whole entry): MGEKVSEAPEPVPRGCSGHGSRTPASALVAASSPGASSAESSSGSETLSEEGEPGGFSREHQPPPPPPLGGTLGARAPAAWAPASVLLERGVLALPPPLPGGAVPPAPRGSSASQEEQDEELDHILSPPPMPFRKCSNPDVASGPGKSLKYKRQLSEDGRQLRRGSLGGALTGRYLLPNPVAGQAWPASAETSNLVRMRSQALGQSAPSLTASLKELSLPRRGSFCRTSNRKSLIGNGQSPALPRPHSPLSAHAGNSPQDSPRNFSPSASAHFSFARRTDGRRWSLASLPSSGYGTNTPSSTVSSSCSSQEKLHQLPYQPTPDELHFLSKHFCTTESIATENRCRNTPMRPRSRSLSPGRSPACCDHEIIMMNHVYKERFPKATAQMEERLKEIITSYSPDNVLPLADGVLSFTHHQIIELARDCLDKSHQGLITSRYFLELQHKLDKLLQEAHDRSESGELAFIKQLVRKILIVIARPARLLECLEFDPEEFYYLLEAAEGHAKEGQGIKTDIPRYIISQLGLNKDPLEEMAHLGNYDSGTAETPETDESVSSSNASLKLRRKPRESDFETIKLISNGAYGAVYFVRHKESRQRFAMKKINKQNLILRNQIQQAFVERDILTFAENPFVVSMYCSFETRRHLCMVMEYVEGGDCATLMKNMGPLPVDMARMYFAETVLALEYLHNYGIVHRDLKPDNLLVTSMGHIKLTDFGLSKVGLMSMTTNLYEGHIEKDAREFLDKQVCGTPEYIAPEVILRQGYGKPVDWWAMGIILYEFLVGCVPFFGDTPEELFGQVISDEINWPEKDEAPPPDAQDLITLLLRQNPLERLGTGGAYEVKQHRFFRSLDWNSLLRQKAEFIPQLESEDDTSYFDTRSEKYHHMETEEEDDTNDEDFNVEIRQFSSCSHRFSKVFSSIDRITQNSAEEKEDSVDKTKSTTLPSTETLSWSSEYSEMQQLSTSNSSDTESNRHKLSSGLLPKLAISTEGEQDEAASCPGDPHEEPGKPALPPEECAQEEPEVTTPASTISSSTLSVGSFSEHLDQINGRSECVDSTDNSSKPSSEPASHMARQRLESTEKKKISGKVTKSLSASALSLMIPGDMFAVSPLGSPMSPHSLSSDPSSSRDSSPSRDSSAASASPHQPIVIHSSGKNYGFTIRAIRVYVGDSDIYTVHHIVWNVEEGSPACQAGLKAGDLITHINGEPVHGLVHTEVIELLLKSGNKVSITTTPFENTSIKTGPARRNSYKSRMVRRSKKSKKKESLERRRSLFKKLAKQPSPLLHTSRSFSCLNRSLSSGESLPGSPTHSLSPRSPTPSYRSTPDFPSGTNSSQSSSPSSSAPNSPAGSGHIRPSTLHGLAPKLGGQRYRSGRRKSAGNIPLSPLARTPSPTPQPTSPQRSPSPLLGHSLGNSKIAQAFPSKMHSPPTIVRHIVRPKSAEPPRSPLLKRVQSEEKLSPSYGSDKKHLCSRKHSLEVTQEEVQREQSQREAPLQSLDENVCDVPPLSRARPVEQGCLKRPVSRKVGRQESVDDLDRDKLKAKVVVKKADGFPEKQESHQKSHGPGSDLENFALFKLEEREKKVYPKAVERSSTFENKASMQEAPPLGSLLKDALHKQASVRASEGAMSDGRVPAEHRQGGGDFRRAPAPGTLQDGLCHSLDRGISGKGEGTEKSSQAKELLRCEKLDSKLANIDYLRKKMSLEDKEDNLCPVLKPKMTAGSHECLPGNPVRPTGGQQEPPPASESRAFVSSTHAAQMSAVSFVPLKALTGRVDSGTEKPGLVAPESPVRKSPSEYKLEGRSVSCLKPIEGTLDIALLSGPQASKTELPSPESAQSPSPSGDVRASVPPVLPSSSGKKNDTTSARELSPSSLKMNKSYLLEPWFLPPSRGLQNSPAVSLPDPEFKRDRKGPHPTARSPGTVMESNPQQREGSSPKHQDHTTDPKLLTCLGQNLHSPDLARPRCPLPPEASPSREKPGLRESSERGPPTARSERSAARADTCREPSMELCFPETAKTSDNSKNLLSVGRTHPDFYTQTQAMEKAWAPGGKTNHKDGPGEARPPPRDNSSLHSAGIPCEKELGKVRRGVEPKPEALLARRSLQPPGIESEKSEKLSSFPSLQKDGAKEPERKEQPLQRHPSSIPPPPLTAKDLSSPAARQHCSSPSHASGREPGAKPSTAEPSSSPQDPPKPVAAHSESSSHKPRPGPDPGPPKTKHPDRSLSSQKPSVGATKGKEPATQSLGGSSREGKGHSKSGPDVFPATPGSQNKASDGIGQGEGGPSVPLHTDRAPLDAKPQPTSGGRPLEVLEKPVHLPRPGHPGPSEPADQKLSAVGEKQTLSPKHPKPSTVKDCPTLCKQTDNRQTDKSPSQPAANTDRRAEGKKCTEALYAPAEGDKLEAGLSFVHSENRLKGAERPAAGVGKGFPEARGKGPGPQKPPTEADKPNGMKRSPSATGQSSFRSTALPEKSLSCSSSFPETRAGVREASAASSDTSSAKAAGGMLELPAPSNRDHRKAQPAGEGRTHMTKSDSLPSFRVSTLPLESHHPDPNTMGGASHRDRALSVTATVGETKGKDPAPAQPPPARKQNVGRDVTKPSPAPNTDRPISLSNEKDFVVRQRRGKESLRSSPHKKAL
method.notes: Inhibition of MAST4 in human HuH7 cell lysates at 10 uM
condition.notes: Huh-7

compound	value.operator	inhibition (%)
O=C(N[C@H](CO)c1ccccc1)c1ccc2nc(N[C@H]3CC[C@H](O)CC3)c3nccn3c2c1	>	88
CCC[C@@H](NC(=O)c1ccc2nc(N[C@H]3CC[C@H](O)CC3)c3nccn3c2c1)c1ccccc1	=	75.6
O=C(NC1(c2ccc(F)cc2)CC1)c1ccc2nc(N[C@H]3CC[C@H](O)CC3)c3nccn3c2c1	=	78.7
C[C@@H](NC(=O)c1ccc2nc(N[C@H]3CC[C@H](O)CC3)c3nccn3c2c1)c1ccccc1	=	76.1
CC[C@@H](NC(=O)c1ccc2nc(N[C@H]3CC[C@H](O)CC3)c3nccn3c2c1)c1ccccc1	=	79.8
O=C(NC1(c2ccccc2)CC1)c1ccc2nc(N[C@H]3CC[C@H](O)CC3)c3nccn3c2c1	>	88
